Below: a set of entries, each annotated with reported switch fluorescence ratio.
Tested on: ATP;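 note: ATP exposure 15 min at 22 °C before imaging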
assay.method.text: switch fluorescence ratio, 500 uM ATP over buffer (Cy3 cluster intensity, sum of 5 cycles each) (fold (ratio)); higher = stronger signal-on switching upon ATP binding; sequences stand for … in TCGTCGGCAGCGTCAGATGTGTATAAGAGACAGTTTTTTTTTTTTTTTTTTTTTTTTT…TC
measurement.setup: aptamer strand: ATP DNA aptamer (quencher-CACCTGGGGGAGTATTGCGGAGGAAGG + anchor), 100 nM annealed; ATP concentration: 500 uM
API doc: respond with a numeric literal and nothing else, no unit.

Solved cases below.
>  <sequence.record>
ATTGTTACTG

>  <switch fluorescence ratio>
1.06

$$$$
>  <sequence.record>
GGATTGTTTT

>  <switch fluorescence ratio>
0.996

$$$$
>  <sequence.record>
ATGTAACGGG

>  <switch fluorescence ratio>
1.03

$$$$
>  <sequence.record>
GCAATGGGTG

>  <switch fluorescence ratio>
1.35

$$$$
>  <sequence.record>
CACGGTTTGT

>  <switch fluorescence ratio>
0.985

$$$$

# get_value(readout= switch fluorescence ratio, system= ATP) for `GGGGCGGGA`;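 note: ATP exposure 15 min at 22 °C before imaging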
1.08

# get_value(readout= switch fluorescence ratio, system= ATP) for `TTCCGTTCAG`;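 note: ATP exposure 15 min at 22 °C before imaging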
1.03

# get_value(readout= switch fluorescence ratio, system= ATP) for `CGCGAGGGGC`;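 note: ATP exposure 15 min at 22 °C before imaging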
1.07

# get_value(readout= switch fluorescence ratio, system= ATP) for `TATGACAGGG`;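 note: ATP exposure 15 min at 22 °C before imaging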
1.05

# get_value(readout= switch fluorescence ratio, system= ATP) for `TAGGGGAGGA`;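 note: ATP exposure 15 min at 22 °C before imaging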
0.993

# get_value(readout= switch fluorescence ratio, system= ATP) for `GTGGTAGGGG`;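 note: ATP exposure 15 min at 22 °C before imaging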
0.995

# get_value(readout= switch fluorescence ratio, system= ATP) for `TCAATTGAGA`;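 note: ATP exposure 15 min at 22 °C before imaging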
1.02

# get_value(readout= switch fluorescence ratio, system= ATP) for `TATTTCCACT`;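 note: ATP exposure 15 min at 22 °C before imaging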
1.02

# get_value(readout= switch fluorescence ratio, system= ATP) for `AGAGGTACAC`;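 note: ATP exposure 15 min at 22 °C before imaging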
1

# get_value(readout= switch fluorescence ratio, system= ATP) for `TCTAATGAGG`;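 note: ATP exposure 15 min at 22 °C before imaging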
1.01

# get_value(readout= switch fluorescence ratio, system= ATP) for `GAAAGAGGGA`;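 note: ATP exposure 15 min at 22 °C before imaging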
1.02

====

Test system: ATP;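 note: ATP exposure 15 min at 22 °C before imaging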
assay.method.text: switch fluorescence ratio, 500 uM ATP over buffer (Cy3 cluster intensity, sum of 5 cycles each) (fold (ratio)); higher = stronger signal-on switching upon ATP binding; sequences stand for … in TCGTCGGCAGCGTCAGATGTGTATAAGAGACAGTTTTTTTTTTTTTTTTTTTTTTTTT…TC
measurement.setup: aptamer strand: ATP DNA aptamer (quencher-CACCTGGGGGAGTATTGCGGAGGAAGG + anchor), 100 nM annealed; ATP concentration: 500 uM
Below: a set of entries, each annotated with reported switch fluorescence ratio.
API doc: respond with a numeric literal and nothing else, no unit.

>  <sequence.record>
GTTTAAAAAG

>  <assay.system>
ATP;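 note: ATP exposure 15 min at 22 °C before imaging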

>  <recorded.endpoint>
switch fluorescence ratio

>  <reported.value>
0.996

$$$$
>  <sequence.record>
AAGGGGTTTC

>  <assay.system>
ATP;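 note: ATP exposure 15 min at 22 °C before imaging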

>  <recorded.endpoint>
switch fluorescence ratio

>  <reported.value>
0.975

$$$$
>  <sequence.record>
GGATGGTGTG

>  <assay.system>
ATP;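 note: ATP exposure 15 min at 22 °C before imaging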

>  <recorded.endpoint>
switch fluorescence ratio

>  <reported.value>
0.977

$$$$
>  <sequence.record>
ATGTTTTTCG

>  <assay.system>
ATP;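 note: ATP exposure 15 min at 22 °C before imaging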

>  <recorded.endpoint>
switch fluorescence ratio

>  <reported.value>
0.972

$$$$
>  <sequence.record>
AAAATTAGGA

>  <assay.system>
ATP;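 note: ATP exposure 15 min at 22 °C before imaging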

>  <recorded.endpoint>
switch fluorescence ratio

>  <reported.value>
1.02

$$$$

# get_value(readout= switch fluorescence ratio, system= ATP) for `CAGGTTTTGT`;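 note: ATP exposure 15 min at 22 °C before imaging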
1.01

# get_value(readout= switch fluorescence ratio, system= ATP) for `AGTGTGATCA`;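 note: ATP exposure 15 min at 22 °C before imaging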
0.986

# get_value(readout= switch fluorescence ratio, system= ATP) for `CCGAGATCGT`;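 note: ATP exposure 15 min at 22 °C before imaging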
1.02

# get_value(readout= switch fluorescence ratio, system= ATP) for `TTGGGGTTGC`;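 note: ATP exposure 15 min at 22 °C before imaging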
1.01

# get_value(readout= switch fluorescence ratio, system= ATP) for `TATCGGTGTT`;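 note: ATP exposure 15 min at 22 °C before imaging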
0.991

# get_value(readout= switch fluorescence ratio, system= ATP) for `TGTTGTGGTG`;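 note: ATP exposure 15 min at 22 °C before imaging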
1
